Biological target: human Nav1.7 (Homo sapiens, UniProt Q15858)
Sequence (Q15858 1-1977 isoform Q15858-3): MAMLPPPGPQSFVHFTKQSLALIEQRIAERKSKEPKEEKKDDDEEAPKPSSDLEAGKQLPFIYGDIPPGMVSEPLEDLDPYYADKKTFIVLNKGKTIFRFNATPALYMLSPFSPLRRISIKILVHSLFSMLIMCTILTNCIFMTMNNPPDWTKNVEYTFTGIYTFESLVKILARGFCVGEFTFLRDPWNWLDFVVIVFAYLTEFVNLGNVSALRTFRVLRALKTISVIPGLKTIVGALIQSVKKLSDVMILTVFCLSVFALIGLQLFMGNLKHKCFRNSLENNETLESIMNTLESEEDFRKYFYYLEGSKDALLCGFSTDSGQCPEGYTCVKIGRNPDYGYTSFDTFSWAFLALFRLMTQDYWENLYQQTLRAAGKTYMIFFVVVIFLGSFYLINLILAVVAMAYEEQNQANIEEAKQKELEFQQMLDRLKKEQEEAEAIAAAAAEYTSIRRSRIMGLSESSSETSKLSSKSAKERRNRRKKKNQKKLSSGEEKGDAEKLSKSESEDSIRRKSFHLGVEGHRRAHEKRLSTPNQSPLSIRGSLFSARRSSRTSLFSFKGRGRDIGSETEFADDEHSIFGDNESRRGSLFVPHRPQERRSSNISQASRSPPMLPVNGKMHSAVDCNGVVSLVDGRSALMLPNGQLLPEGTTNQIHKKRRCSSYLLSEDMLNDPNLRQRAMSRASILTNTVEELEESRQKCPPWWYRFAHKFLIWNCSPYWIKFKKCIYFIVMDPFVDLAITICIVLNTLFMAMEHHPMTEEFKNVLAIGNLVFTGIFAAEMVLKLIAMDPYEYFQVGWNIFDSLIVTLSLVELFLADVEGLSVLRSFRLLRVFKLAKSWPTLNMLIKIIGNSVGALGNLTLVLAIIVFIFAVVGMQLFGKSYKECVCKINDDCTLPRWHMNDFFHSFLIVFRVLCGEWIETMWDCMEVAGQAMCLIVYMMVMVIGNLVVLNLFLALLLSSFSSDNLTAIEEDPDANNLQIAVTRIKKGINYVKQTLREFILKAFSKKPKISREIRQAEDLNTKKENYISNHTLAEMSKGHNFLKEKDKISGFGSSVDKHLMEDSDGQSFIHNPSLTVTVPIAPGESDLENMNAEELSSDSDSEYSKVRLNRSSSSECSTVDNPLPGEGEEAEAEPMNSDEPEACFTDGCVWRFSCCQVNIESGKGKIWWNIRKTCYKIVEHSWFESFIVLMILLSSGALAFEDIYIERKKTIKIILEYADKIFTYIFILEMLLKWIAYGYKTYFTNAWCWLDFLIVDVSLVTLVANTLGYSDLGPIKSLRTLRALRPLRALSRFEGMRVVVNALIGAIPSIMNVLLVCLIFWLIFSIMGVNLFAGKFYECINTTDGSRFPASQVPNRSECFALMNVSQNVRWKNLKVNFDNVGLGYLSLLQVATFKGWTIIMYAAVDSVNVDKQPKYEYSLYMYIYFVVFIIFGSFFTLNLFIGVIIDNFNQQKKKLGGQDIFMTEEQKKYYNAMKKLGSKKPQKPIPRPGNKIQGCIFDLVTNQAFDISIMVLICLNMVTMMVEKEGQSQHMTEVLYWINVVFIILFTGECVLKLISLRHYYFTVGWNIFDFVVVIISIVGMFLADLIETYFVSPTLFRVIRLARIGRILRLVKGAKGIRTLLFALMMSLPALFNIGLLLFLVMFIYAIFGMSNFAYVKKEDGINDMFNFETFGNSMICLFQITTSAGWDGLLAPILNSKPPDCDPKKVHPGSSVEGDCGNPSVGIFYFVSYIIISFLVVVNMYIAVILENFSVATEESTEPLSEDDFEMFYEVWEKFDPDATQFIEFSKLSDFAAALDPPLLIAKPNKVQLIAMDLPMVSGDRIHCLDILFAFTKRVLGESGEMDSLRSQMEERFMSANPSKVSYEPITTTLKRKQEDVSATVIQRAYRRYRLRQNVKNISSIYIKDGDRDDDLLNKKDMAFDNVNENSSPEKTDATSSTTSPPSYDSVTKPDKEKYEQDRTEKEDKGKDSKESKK
Assay: FLIPR membrane potential dye assay (alternative fluorescence assay) in Nav1.7 expressing cells
Format: cell-based
Settings: Table 7
# if measured IC50 < 3 µM: Condition met  # else: Condition not met

                                smiles_data     assigned_label
0  Cn1cc(-c2ccc(-c3nc(N[C@H]4CCNC4=O)cc(C(N)=O)n3)cc2)c2ccc(C(F)(F)F)cc21  Condition not met
1  NC(=O)c1cc(N[C@H]2CCNC2=O)nc(-c2ccc(Oc3ccc(C(F)F)cn3)cc2)n1      Condition met
2  Cn1nccc1-c1cc(Oc2ccc(C(F)(F)F)cc2)ccc1-c1nc(N[C@H]2CCNC2=O)cc(C(N)=O)n1      Condition met
3  C[C@H](Nc1cc(C(N)=O)nc(-c2ccc(Cc3ccc(C(F)(F)F)cn3)cc2)n1)C(N)=O      Condition met
4  NC(=O)c1cc(O[C@H]2CCNC2=O)nc(-c2ccc(Oc3ccc(C(F)(F)F)cc3CN3CCCC3)cc2)n1      Condition met
5  NC(=O)c1cc(O[C@H]2CCNC2=O)nc(N2[C@@H]3CC[C@H]2C[C@@H](Oc2ccc(C(F)(F)F)cn2)C3)n1      Condition met

###

As shown below, each of these compounds has a reported IC50 value.
Target: UniProt:Q15858
Test: FLIPR sodium dye assay (CoroNa Green AM Na+ dye, primary fluorescence assay) in recombinant Nav1.7/HEK293 cells
Type: cell-based
Settings: Table 6; CoroNa Green AM Na+ dye primary fluorescence assay; read-out: Nav1.7 Activity (μM) FLIPR assay IC50
QUANTITY: IC50 (µM)

>>> df
                                   compound  measurement_target  inequality_symbol  quantitative_result
0  NC(=O)c1cc(OCCN2CCCC2=O)nc(-c2ccc(Oc3ccc(C(F)(F)F)cc3)cc2)n1      UniProt:Q15858                  =                 0.12
1  NC(=O)c1cc(N[C@H]2CCNC2=O)nc(-c2ccc(Oc3ccc(OCC(F)(F)F)nn3)cc2)n1      UniProt:Q15858                  =                 1.13
2  C[C@H](Nc1cc(C(N)=O)nc(N2C3CCC2CC(Oc2ccc(F)cc2)C3)n1)C(N)=O (stereo partly shown)      UniProt:Q15858                  =                 3.24
3  C[C@H](Nc1cc(C(N)=O)nc(-c2ccc(Oc3ccc(C(F)(F)F)cc3CN3CCCC3)cc2)n1)C(N)=O      UniProt:Q15858                  =                 1.17
4  COCc1cc(Oc2ccc(F)cc2)ccc1-c1nc(N[C@@H](C)C(N)=O)cc(C(N)=O)n1      UniProt:Q15858                  =                 1.77
5  NC(=O)c1cc(N[C@H]2CCNC2=O)nc(-c2ccc(Oc3ccc(F)cc3)cc2CN2CCC2)n1      UniProt:Q15858                  >                   20
6  O=C(NCCN1CCCC1)c1cc(N[C@H]2CCNC2=O)nc(-c2ccc(Oc3ccc(C(F)(F)F)cn3)cc2)n1      UniProt:Q15858                  =                 4.17
